System: Type 3 Phosphodiesterase
Experiment: Phosphodiesterase (PDE) Inhibition, Type 3 Phosphodiesterase
Type: biochemical, bovine (coronary arteries)
Conditions: Type 3 PDE, at 10^-5 M, substrate 3H-cAMP 1.0 μM
measured-property: % Inhibition of hydrolysis of 3H-cAMP (%)

Cc1nn(C)c2c(=O)[nH]c(-c3ccc(C(F)(F)F)cc3)nc12 :: -9
CCn1nc(C)c2nc(-c3ccccc3)[nH]c(=O)c21 :: 56
Cc1nn(C)c2c(=O)[nH]c(-c3cccnc3)nc12 :: 3
Cc1nn(C)c2c(=O)[nH]c(-c3cccc([N+](=O)[O-])c3)nc12 :: 50
Cc1ccc(-c2nc3c(C)nn(C)c3c(=O)[nH]2)cc1 :: 15

A. CCn1nc(C)c2nc(-c3ccncc3)[nH]c(=O)c21
B. Cc1nn(C)c2c(=O)[nH]c(-c3ccncc3)nc12
C. Cc1nn(C)c2c(=O)[nH]c(-c3ccc(Cl)cc3[N+](=O)[O-])nc12
D. Cc1nn(C)c2c(=O)[nH]c(-c3ccc(Cl)c(Cl)c3)nc12
Ask: Ascending by % Inhibition of hydrolysis of 3H-cAMP, please: list the molecules accordingly. Sort the labels as requested; that list is your answer.
Result: D, C, B, A

* * *

Here the recorded change in vivo at 0.1 mg/kg is given for each entry.
Tested on: pentobarbital-anesthetized dog
Experiment: In Vivo Myocardial Inotropic Activity in Anesthetized Dog (CVAD)
Design: species or system dog (adult mongrel)
Settings: Canis lupus familiaris, iv, 0.10 mg/kg IV; read-out: Percent Change Myocardial Contractility
// return numeric value only (unit: %, not printed)

# example entries with known answers
Cc1nn(C)c2c(=O)[nH]c(-c3ccccc3)nc12 [Example 6] :: 4
Cc1nn(C)c2c(=O)[nH]c(Cc3ccccc3)nc12 [Example 1] :: 8
Cc1nn(C)c2c(=O)[nH]c(-c3ccc(Cl)c(Cl)c3)nc12 [Example 15] :: 8
Cc1nn(C)c2c(=O)[nH]c(-c3ccc([N+](=O)[O-])cc3)nc12 [Example 9] :: 4
CCn1nc(C)c2nc(-c3ccccc3)[nH]c(=O)c21 [Example 5] :: 10
Cc1ccc(-c2nc3c(C)nn(C)c3c(=O)[nH]2)cc1 [Example 8] :: 7
Cc1nn(C)c2c(=O)[nH]c(-c3cccnc3)nc12 [Example 4] :: 2
CCn1nc(C)c2nc(-c3ccncc3)[nH]c(=O)c21 [Example 3] :: 12

Ask: Give a short answer stating reported change in vivo at 0.1 mg/kg for Cc1nn(C)c2c(=O)[nH]c(-c3cccc(N)c3)nc12 [Example 12] .
Result: -1

Ask: Give recorded change in vivo at 0.1 mg/kg. Cc1nn(C)c2c(=O)[nH]c(-c3ccncc3)nc12 [Example 2]
Result: 4

* * *

Tested on: pentobarbital-anesthetized dog
Test: In Vivo Myocardial Inotropic Activity in Anesthetized Dog (CVAD)
Parameters: species or system dog (adult mongrel)
Conditions: Canis lupus familiaris, iv, 0.10 mg/kg IV; read-out: Percent Change Myocardial Contractility
Below, each of the compounds is paired with its reported change in vivo at 0.1 mg/kg value.
Reply with just the number (in %).

Before answering, review these 3 worked examples.
COc1ccccc1-c1nc2c(C)nn(C)c2c(=O)[nH]1 [Example 14] :: 2
COc1ccc(-c2nc3c(C)nn(C)c3c(=O)[nH]2)cc1OC [Example 16] :: 2
Cc1nn(C)c2c(=O)[nH]c(-c3ccc(N)cc3)nc12 [Example 11] :: 9

Here's the next entry for you.
Ask: Specify measured change in vivo at 0.1 mg/kg for Cc1nn(C)c2c(=O)[nH]c(-c3cccc([N+](=O)[O-])c3)nc12 [Example 13] .
Result: 6

* * *

Biological target: adenosine A1 receptor (Rattus norvegicus, UniProt P25099)
Construct: Whole brain minus cerebellum and brainstem from male Long Evans rats
Sequence (P25099 whole entry): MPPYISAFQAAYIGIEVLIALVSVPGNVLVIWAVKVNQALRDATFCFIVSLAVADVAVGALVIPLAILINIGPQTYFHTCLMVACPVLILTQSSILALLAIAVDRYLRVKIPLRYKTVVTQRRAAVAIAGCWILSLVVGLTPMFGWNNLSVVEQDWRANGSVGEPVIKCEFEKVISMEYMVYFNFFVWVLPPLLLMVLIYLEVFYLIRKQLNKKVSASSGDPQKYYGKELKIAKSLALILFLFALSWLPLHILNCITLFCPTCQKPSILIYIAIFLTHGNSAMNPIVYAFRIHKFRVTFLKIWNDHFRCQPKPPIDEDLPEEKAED
Test: Adenosine Receptor Binding - A1 Receptor Affinity (RBA1), [3H]-N6-cyclohexyladenosine displacement
Conditions: [3H]-CHA 1.0 nM, rat brain membranes, 25° C., one hour; read-out: RBA-1, IC50 for adenosine A1 receptor affinity
pIC50: −log10 of the molar value.
measured-property: pIC50

CCn1nc(C)c2nc(-c3ccncc3)[nH]c(=O)c21 :: 6.63

I. CCn1nc(C)c2nc(Cc3ccccc3)[nH]c(=O)c21
II. Cc1nn(C)c2c(=O)[nH]c(-c3ccc(Cl)cc3)nc12
Ask: Between item I and item II , which reported pIC50 is smaller? Label of pick, please.
Result: I

a. Cc1nn(C)c2c(=O)[nH]c(-c3ccc(Cl)cc3[N+](=O)[O-])nc12
b. Cc1nn(C)c2c(=O)[nH]c(-c3ccncc3)nc12
Ask: # argmax over pIC50 for candidates a and b State your choice using its label.
Result: b

* * *

Measured change in vivo at 0.31 mg/kg of individual entries
System: pentobarbital-anesthetized dog
Assay: In Vivo Myocardial Inotropic Activity in Anesthetized Dog (CVAD)
Set-up: species or system dog (adult mongrel)
Conditions: Canis lupus familiaris, iv, 0.31 mg/kg IV; read-out: Percent Change Heart Rate
Give just the number in %; leave the unit off.

COc1ccc(-c2nc3c(C)nn(C)c3c(=O)[nH]2)cc1OC [Example 16] :: -1
Cc1nn(C)c2c(=O)[nH]c(-c3ccncc3)nc12 [Example 2] :: 1
Cc1nn(C)c2c(=O)[nH]c(Cc3ccccc3)nc12 [Example 1] :: 3

Ask: Report change in vivo at 0.31 mg/kg on pentobarbital-anesthetized dog for this entry: Cc1nn(C)c2c(=O)[nH]c(-c3ccc(N)cc3)nc12 [Example 11]
Result: 3

Ask: Determine reported change in vivo at 0.31 mg/kg for COc1ccccc1-c1nc2c(C)nn(C)c2c(=O)[nH]1 [Example 14] ; test system: pentobarbital-anesthetized dog.
Result: 4

Ask: Retrieve change in vivo at 0.31 mg/kg on pentobarbital-anesthetized dog; query Cc1nn(C)c2c(=O)[nH]c(-c3cccc(N)c3)nc12 [Example 12]
Result: -10

* * *

Tested on: Type 1 Phosphodiesterase
Experiment: Phosphodiesterase (PDE) Inhibition, Type 1 Phosphodiesterase
Format: biochemical, bovine (coronary arteries)
Conditions: Type 1 PDE, at 10^-5 M, substrate 3H-cAMP 1.0 μM
measured-property: % Inhibition of hydrolysis of 3H-cAMP (%)

Cc1nn(C)c2c(=O)[nH]c(-c3ccccc3)nc12 :: 6
Cc1ccc(-c2nc3c(C)nn(C)c3c(=O)[nH]2)cc1 :: 14
Cc1nn(C)c2c(=O)[nH]c(-c3ccc(C(F)(F)F)cc3)nc12 :: 12

a. CCn1nc(C)c2nc(-c3ccncc3)[nH]c(=O)c21
b. Cc1nn(C)c2c(=O)[nH]c(-c3cccnc3)nc12
c. Cc1nn(C)c2c(=O)[nH]c(-c3ccc([N+](=O)[O-])cc3)nc12
d. Cc1nn(C)c2c(=O)[nH]c(Cc3ccccc3)nc12
Ask: Order field: % Inhibition of hydrolysis of 3H-cAMP | Direction: descending (largest first) Output spec: labels arranged per the requested ranking.
Result: d, a, c, b

* * *

System: pentobarbital-anesthetized dog
Assay: In Vivo Myocardial Inotropic Activity in Anesthetized Dog (CVAD)
Design: species or system dog (adult mongrel)
Settings: Canis lupus familiaris, iv, 1.00 mg/kg IV; read-out: Percent Change Blood Pressure
Parameter change in vivo at 1 mg/kg: see the listing below.
Expressed in %, but write only the number.

CCn1nc(C)c2nc(-c3ccccc3)[nH]c(=O)c21 [Example 5] :: 1
Cc1nn(C)c2c(=O)[nH]c(-c3cccc([N+](=O)[O-])c3)nc12 [Example 13] :: -7
CCn1nc(C)c2nc(-c3ccncc3)[nH]c(=O)c21 [Example 3] :: 2

Ask: // fetch change in vivo at 1 mg/kg for Cc1ccc(-c2nc3c(C)nn(C)c3c(=O)[nH]2)cc1 [Example 8] ; system: pentobarbital-anesthetized dog
Result: 3

* * *

Test system: pentobarbital-anesthetized dog
Assay: In Vivo Myocardial Inotropic Activity in Anesthetized Dog (CVAD)
Parameters: species or system dog (adult mongrel)
Settings: Canis lupus familiaris, iv, 0.10 mg/kg IV; read-out: Percent Change Blood Pressure
Catalogue of change in vivo at 0.1 mg/kg readings, one per entry.
Just the number please, in %, no unit attached.

Known change in vivo at 0.1 mg/kg results, listed for orientation:
CCn1nc(C)c2nc(-c3ccncc3)[nH]c(=O)c21 [Example 3] :: 2
Cc1ccc(-c2nc3c(C)nn(C)c3c(=O)[nH]2)cc1 [Example 8] :: -1
Cc1nn(C)c2c(=O)[nH]c(-c3ccncc3)nc12 [Example 2] :: 0
CCn1nc(C)c2nc(-c3ccccc3)[nH]c(=O)c21 [Example 5] :: 2

Ask: Tell us which change in vivo at 0.1 mg/kg value is on record for Cc1nn(C)c2c(=O)[nH]c(-c3cccc([N+](=O)[O-])c3)nc12 [Example 13]
Result: -2
